Tested on: CCRF-CEM leukemia
Assay info: NCI tumour cell line growth inhibition, 48 h
Measured parameter: TGI

-- ask Entry under review: NC(=S)Nc1nnc(-c2ccc(-c3nnc(NC(N)=S)o3)cc2)o1 . Reported TGI?
-- reply > 100 µM

-- ask Bench note: what TGI did C[C@]12CC[C@@H]3c4ccc(OCC(=O)O)cc4CC[C@H]3[C@@H]1CCC2=O show?
-- reply 4.48 µM

-- ask What value of measured TGI is listed for CC(C)C1=CC(=O)C(C)(C2=NC(C)(C)CO2)c2ccccc21 (stereo not given) ?
-- reply > 100 µM

-- ask Which TGI is reported for this molecule? O=C1CC(c2ccccc2)NCN1 (stereo not given)
-- reply > 100 µM

-- ask Return reported TGI; argument: CN1CCC23c4ccccc4NC1C21CCN(C)C3Nc2ccccc21
-- reply > 188 µM

-- ask // lookup TGI for NC(=S)N/N=C1\C(=O)N(c2cccc([N+](=O)[O-])c2)C(=O)C1C(=O)Nc1cccc([N+](=O)[O-])c1 (stereo not given)
-- reply > 100 µM

-- ask I would be grateful if you could share the reported TGI for COc1ccc(C2c3cc4c(cc3OC(O)(CO)C2C(=O)O)OCO4)c(OC)c1OC (stereo not given) (tested in a mixture with another compound) .
-- reply > 100 µM

-- ask Form field: reported TGI of Cc1nc(Nc2ccccc2)sc1C(=O)NNC(N)=O
-- reply > 100 µM

-- ask Item under review: N#Cc1c(N)nc(N2CCOCC2)c(C#N)c1-c1cccc(O)c1 . Reported TGI?
-- reply > 100 µM

-- ask Entry C[N+]1(C)C2CCC1CC(OC(=O)C(CO)c1ccccc1)C2 (stereo not given) has what TGI?
-- reply > 100 µM
